Reported DH values for a set of substances
- ASSAYED TARGET: PRPF40A WW12 (tandem WW domains, residues 141–236) (Homo sapiens)
- Construct: WW12 141–236, WW12long 141–248, and N-ext-WW12 56–236; 6xHis-TEV site (N, cleaved yes); made in house; host or cells: Escherichia coli BL21(DE3)
- Sequence (O75400 141-236): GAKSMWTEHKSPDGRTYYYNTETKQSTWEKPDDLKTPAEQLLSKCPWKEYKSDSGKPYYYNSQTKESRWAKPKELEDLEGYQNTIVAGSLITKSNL
- MEASUREMENT NOTES: ITC of PRPF40A WW12 with GB1-tagged proline-rich peptides and constructs
- Type: binding
- MEASUREMENT SETUP: ITC binding enthalpy, as E4
No end group written: not given here.
Reply with just the number (in kcal/mol).

>>> recorded_number("SF1 Pro C: GB1-tagged SF1 construct, residues 539–594, contains the WWbs 16-mer (GB1-GSIPPWQQQQAAAAASPGAPQMQGNPTMVPLPPGVQPPLPPGAPPPPPPPPPGSAG; also: His6 tag state not given here)")
-20.6
>>> recorded_number("SF3A1 Middle Pro: GB1-tagged SF3A1 construct, residues 364–413, contains a PPLP motif (GB1-EGQKVPPPPETPMPPPLPPTPDQVIVRKDYDPKASKPLPPAPAPDEYLVS; also: His6 tag state not given here)")
-27.25
>>> recorded_number("SF1 Pro D: GB1-tagged SF1 construct, residues 594–639 (GB1-GMMYAPPPPPPPPMDPSNFVTMMGMGVAGMPPFGMPPAPPPPPPQN; also: His6 tag state not given here)")
-16

So what's the measured DH for this one? SF1 Pro A: GB1-tagged SF1 construct, residues 410–468 (GB1-GHPMQHNPNGPPPPWMQPPPPPMNQGPHPPGHHGPPPMDQYLGSTPVGSGVYRLHQGKG; also: His6 tag state not given here)
-15.1
